SYSTEM TESTED: α4β1 integrin (Homo sapiens, UniProt P05556+P13612)
Construct: endogenous in cells; host or cells: Ramos cells
Sequence (P13612 34-1032): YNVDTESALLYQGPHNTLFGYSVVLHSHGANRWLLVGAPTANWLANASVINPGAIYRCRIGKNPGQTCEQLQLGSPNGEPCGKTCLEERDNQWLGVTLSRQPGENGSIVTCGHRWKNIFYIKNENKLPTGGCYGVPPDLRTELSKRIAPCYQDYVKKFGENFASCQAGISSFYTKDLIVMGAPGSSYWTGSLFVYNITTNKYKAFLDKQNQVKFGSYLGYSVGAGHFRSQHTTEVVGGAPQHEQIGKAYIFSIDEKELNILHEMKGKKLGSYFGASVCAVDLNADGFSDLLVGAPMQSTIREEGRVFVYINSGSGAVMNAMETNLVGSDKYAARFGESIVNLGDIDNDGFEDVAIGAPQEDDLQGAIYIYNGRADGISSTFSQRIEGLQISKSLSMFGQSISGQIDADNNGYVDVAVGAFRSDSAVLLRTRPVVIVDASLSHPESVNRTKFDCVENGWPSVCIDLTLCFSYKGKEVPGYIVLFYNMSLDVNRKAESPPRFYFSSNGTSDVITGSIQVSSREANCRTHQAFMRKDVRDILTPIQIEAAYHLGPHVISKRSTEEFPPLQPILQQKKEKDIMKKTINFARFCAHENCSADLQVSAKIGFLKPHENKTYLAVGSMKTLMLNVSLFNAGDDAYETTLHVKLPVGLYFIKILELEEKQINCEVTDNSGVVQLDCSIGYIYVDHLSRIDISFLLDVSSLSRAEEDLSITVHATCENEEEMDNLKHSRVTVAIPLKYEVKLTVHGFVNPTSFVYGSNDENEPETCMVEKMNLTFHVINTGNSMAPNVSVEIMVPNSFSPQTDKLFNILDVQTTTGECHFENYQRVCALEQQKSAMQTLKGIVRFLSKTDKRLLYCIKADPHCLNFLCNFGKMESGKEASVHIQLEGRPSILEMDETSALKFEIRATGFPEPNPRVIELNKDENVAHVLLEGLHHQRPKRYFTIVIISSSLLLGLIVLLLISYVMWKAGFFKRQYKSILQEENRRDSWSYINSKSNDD
Sequence (P05556 21-798): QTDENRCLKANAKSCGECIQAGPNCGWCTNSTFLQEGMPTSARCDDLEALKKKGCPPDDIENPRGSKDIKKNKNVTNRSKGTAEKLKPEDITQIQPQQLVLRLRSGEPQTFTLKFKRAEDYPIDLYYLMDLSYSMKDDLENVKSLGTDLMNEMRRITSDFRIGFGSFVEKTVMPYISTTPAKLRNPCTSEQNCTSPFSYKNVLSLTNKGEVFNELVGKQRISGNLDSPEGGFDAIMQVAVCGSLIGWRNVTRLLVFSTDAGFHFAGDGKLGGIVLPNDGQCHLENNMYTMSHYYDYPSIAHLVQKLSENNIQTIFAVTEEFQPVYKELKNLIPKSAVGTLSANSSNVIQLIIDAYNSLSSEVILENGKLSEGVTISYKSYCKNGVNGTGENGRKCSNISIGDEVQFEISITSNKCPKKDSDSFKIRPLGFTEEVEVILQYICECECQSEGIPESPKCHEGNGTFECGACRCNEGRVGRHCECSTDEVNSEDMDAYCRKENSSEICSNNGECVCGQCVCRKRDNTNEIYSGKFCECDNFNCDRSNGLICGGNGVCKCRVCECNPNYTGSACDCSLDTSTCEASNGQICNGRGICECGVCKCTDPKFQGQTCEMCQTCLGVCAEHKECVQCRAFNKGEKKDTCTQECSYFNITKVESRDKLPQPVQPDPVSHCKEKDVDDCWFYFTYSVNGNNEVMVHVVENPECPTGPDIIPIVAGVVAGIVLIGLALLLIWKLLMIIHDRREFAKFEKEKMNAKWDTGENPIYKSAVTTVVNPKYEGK
TEST NAME: Adhesion of calcein-labeled Ramos cells to CS1 (fibronectin) peptide conjugated ovalbumin
Format: cell-based
DETAILS: Table 7; Ramos cell adhesion to CS1 conjugated ovalbumin; dose required to give 50% inhibition
Listed next: entries and their corresponding IC50.

Consider the reported IC50 for these compounds:
CCCc1ccc([C@H](CC(=O)O)NC(=O)Nc2c(O)c(C)cn(Cc3ccccc3Cl)c2=O)cc1: 12 nM
CN(c1cccc([C@H](CC(=O)O)NC(=O)Nc2c(O)c3c(n(Cc4ccccc4Cl)c2=O)CCC3)c1)S(C)(=O)=O: 1.6 nM
Cc1ccc([C@H](CC(=O)O)NC(=O)Nc2c(O)c(C)cn(Cc3cc(F)ccc3Cl)c2=O)cc1: 5 nM
Cc1cn(Cc2ccccc2Cl)c(=O)c(NC(=O)NC(CC(=O)O)c2ccc(S(C)(=O)=O)cc2)c1O (centres unmarked): 134 nM
Cc1cn(Cc2ccccc2Cl)c(=O)c(NC(=O)N[C@@H](CC(=O)O)c2ccc(C(C)C)cc2)c1O: 175 nM

Which IC50 is reported for this compound? `CCOc1cccc([C@H](CC(=O)O)NC(=O)Nc2c(O)c(C)cn(Cc3c(Cl)cccc3OCC(F)(F)F)c2=O)c1` 4 nM

Which IC50 is reported for this compound? `Cc1cccc(Cl)c1Cn1c2c(c(O)c(NC(=O)N[C@@H](CC(=O)O)c3ccc4[nH]ccc4c3)c1=O)CCC2` 2 nM

Which IC50 is reported for this compound? `CCOc1cc([C@H](CC(=O)O)NC(=O)Nc2c(O)c(C)cn(Cc3ccccc3Cl)c2=O)ccc1-c1ccccc1` 25 nM

###

Listed next: entries and their corresponding log10 of IC50.
SYSTEM TESTED: α4β1 integrin (Homo sapiens, UniProt P05556+P13612)
Construct: endogenous in cells; host or cells: Ramos cells
TEST NAME: Adhesion of calcein-labeled Ramos cells to CS1 (fibronectin) peptide conjugated ovalbumin
Type: cell-based
DETAILS: Table 5; Ramos cell adhesion to CS1 conjugated ovalbumin; dose required to give 50% inhibition
Scale: decimal log of IC50, IC50 in nM.

Consider the reported log10 of IC50 for these compounds:
COc1c(C)cc([C@H](CC(=O)O)NC(=O)Nc2c(O)ccn(Cc3ccccc3Cl)c2=O)cc1C: 1.54
Cc1ccc([C@H](CC(=O)O)NC(=O)Nc2c(O)ccn(Cc3cc(C)cc(C)c3)c2=O)cc1: 1.78
COc1cc([C@H](CC(=O)O)NC(=O)Nc2c(O)c(C)c(C)n(Cc3c(C)cccc3Cl)c2=O)ccc1C: 1.40
Cc1ccc([C@H](CC(=O)O)NC(=O)Nc2c(NC(=O)NC(C)(C)C)ccn(Cc3ccccc3Cl)c2=O)cc1: 1.00

Which log10 of IC50 is reported for this compound? `O=C(O)C[C@@H](Cc1ccccn1)NC(=O)Nc1c(O)ccn(Cc2ccccc2Cl)c1=O` 2.35

Which log10 of IC50 is reported for this compound? `COc1ccc(Cl)c(Cn2ccc(O)c(NC(=O)N[C@@H](CC(=O)O)c3ccc(C)cc3)c2=O)c1` 1.08

Which log10 of IC50 is reported for this compound? `CCOc1cc([C@H](CC(=O)O)NC(=O)Nc2c(O)ccn(Cc3ccccc3Cl)c2=O)ccc1OC` 0.30

Which log10 of IC50 is reported for this compound? O=C(O)CC(NC(=O)Nc1c(O)ccn(Cc2ccccc2Cl)c1=O)c1ccc2ccccc2c1 (centres unmarked) 1.30

Which log10 of IC50 is reported for this compound? `Cc1ccc([C@H](CC(=O)O)NC(=O)Nc2c(O)ccn(Cc3ccccc3OC(F)(F)F)c2=O)cc1` 1.40

Which log10 of IC50 is reported for this compound? `Cc1ccc(Cn2ccc(O)c(NC(=O)N[C@@H](CC(=O)O)c3ccc(C)cc3)c2=O)cc1` 1.40

Which log10 of IC50 is reported for this compound? `Cc1ccc([C@H](CC(=O)O)NC(=O)Nc2c(O)ccn(Cc3c(Cl)cccc3Cl)c2=O)cc1` 1.11

Which log10 of IC50 is reported for this compound? `Cc1ccc([C@H](CC(=O)O)NC(=O)Nc2c(O)ccn(Cc3cc(F)ccc3Cl)c2=O)cc1` 1.15

Which log10 of IC50 is reported for this compound? `Cc1ccc([C@H](CC(=O)O)NC(=O)Nc2c(O)ccn(Cc3cccc(Cl)c3)c2=O)cc1` 1.18

Which log10 of IC50 is reported for this compound? `Cc1ccc([C@H](CC(=O)O)NC(=O)Nc2c(O)ccn(Cc3cc(C(F)(F)F)ccc3Cl)c2=O)cc1` 1.00

Which log10 of IC50 is reported for this compound? `O=C(O)C[C@@H](Cc1cccc(C(F)(F)F)c1)NC(=O)Nc1c(O)ccn(Cc2ccccc2Cl)c1=O` 2.54

Which log10 of IC50 is reported for this compound? `Cc1ccc([C@H](CC(=O)O)NC(=O)Nc2c(O)ccn(Cc3ccccc3S(=O)(=O)N(C)C)c2=O)cc1` 1.48

Which log10 of IC50 is reported for this compound? `Cc1ccc([C@H](CC(=O)O)NC(=O)Nc2c(O)ccn(Cc3cc(F)ccc3F)c2=O)cc1` 1.18

###

Listed next: entries and their corresponding IC50.
SYSTEM TESTED: α4β1 integrin (Homo sapiens, UniProt P05556+P13612)
Construct: endogenous in cells; host or cells: Ramos cells
TEST NAME: Adhesion of calcein-labeled Ramos cells to CS1 (fibronectin) peptide conjugated ovalbumin
Type: cell-based
DETAILS: Table 4; Ramos cell adhesion to CS1 conjugated ovalbumin, 30 minutes at 37° C.
Give the quantity in nM, number only.

Consider the reported IC50 for these compounds:
N#Cc1cccc(CN2CCCCC(NC(=O)N[C@@H](CC(=O)O)c3ccc4c(c3)OCO4)C2=O)c1 (stereo partly drawn): 40
Cc1ccc([C@H](CC(=O)O)NC(=O)Nc2cccn(Cc3csc(C)n3)c2=O)cc1: 1000
Cc1ccc([C@H](CC(=O)O)NC(=O)Nc2cccn(Cc3ccccc3[N+](=O)[O-])c2=O)cc1: 1000
Cc1ccc([C@H](CC(=O)O)NC(=O)Nc2cnc(C)n(Cc3ccccc3Cl)c2=O)cc1: 90
Cc1ccc([C@H](CC(=O)O)NC(=O)Nc2cccn(Cc3cc(NS(C)(=O)=O)ccc3Br)c2=O)cc1: 250

Recorded IC50 for `O=C(O)C[C@H](NC(=O)Nc1cccn(Cc2ccccc2Cl)c1=O)c1ccc2c(c1)OCO2` with α4β1 integrin (Homo sapiens, UniProt P05556+P13612), please? 300

###

SYSTEM TESTED: α4β1 integrin (Homo sapiens, UniProt P05556+P13612)
Construct: endogenous in cells; host or cells: Ramos cells
TEST NAME: Adhesion of calcein-labeled Ramos cells to CS1 (fibronectin) peptide conjugated ovalbumin
Format: cell-based
DETAILS: Table 5; Ramos cell adhesion to CS1 conjugated ovalbumin; dose required to give 50% inhibition
ASSAY METRIC: pIC50
Reminder that pIC50 is minus the log10 of a molar concentration.

CCOc1cccc([C@H](CC(=O)O)NC(=O)Nc2c(O)c(C)c(C)n(Cc3c(C)cccc3Cl)c2=O)c1: 7.82
Cc1ccc([C@H](CC(=O)O)NC(=O)Nc2c(O)ccn(Cc3ccc(F)cc3)c2=O)cc1: 7.66
COc1c(Cn2cccc(NC(=O)N[C@@H](CC(=O)O)c3ccc(C)cc3)c2=O)cccc1C(C)(C)C: 5.60

Which pIC50 is reported for this compound? `Cc1ccc([C@H](CC(=O)O)NC(=O)Nc2c(O)ccn(Cc3ccccn3)c2=O)cc1` 7.35

Which pIC50 is reported for this compound? `Cc1ccc([C@H](CC(=O)O)NC(=O)Nc2cccn(Cc3cc(O)ccc3Cl)c2=O)cc1` 6.60

Which pIC50 is reported for this compound? Cc1cn(Cc2ccccc2Cl)c(=O)c(NC(=O)NC(CC(=O)O)c2ccc3ccccc3c2)c1O (centres unmarked) 7.52

Which pIC50 is reported for this compound? `Cc1ccc([C@H](CC(=O)O)NC(=O)Nc2c(O)c(C)c(C)n(Cc3c(C)cccc3Cl)c2=O)cc1` 7.52

Which pIC50 is reported for this compound? `Cc1ccc([C@H](CC(=O)O)NC(=O)Nc2c(O)ccn(Cc3cc(C(F)(F)F)cc(C(F)(F)F)c3)c2=O)cc1` 6.52

Which pIC50 is reported for this compound? `Cc1ccc([C@H](CC(=O)O)NC(=O)Nc2c(O)ccn(Cc3c(Cl)cccc3C#N)c2=O)cc1` 8.15

Which pIC50 is reported for this compound? `Cc1ccc(C)c([C@H](CC(=O)O)NC(=O)Nc2c(O)ccn(Cc3ccccc3Cl)c2=O)c1` 7.30

Which pIC50 is reported for this compound? `Cc1ccc([C@H](CC(=O)O)NC(=O)Nc2c(O)ccn(Cc3ccc(Cl)cc3)c2=O)cc1` 8.15

###

SYSTEM TESTED: α4β1 integrin (Homo sapiens, UniProt P05556+P13612)
Construct: endogenous in cells; host or cells: Ramos cells
TEST NAME: Adhesion of calcein-labeled Ramos cells to CS1 (fibronectin) peptide conjugated ovalbumin
Type: cell-based
DETAILS: Table 3; Ramos cell adhesion to CS1 conjugated ovalbumin, 30 minutes at 37° C.
pIC50: −log10 of the molar value.
Label t when pIC50 is at or above 8; otherwise label f.

COCCOCCOCCOc1ccn(Cc2ccccc2Cl)c(=O)c1NC(=O)N[C@@H](CC(=O)O)c1ccc(C)cc1: t
Cc1ccc([C@H](CC(=O)O)NC(=O)Nc2c(Br)ccn(Cc3ccccc3Cl)c2=O)cc1: f
COc1ccc([C@H](CC(=O)O)NC(=O)Nc2c(O)ccn(Cc3ccccc3Cl)c2=O)cc1: t
Cc1ccc([C@H](CC(=O)O)NC(=O)Nc2c(N3CCOCC3)ccn(Cc3ccccc3Cl)c2=O)cc1: t
Cc1ccc([C@H](CC(=O)O)NC(=O)Nc2c(C)ccn(Cc3ccccc3)c2=O)cc1: f

Please indicate if the recorded pIC50 for `Cc1ccc([C@H](CC(=O)O)NC(=O)Nc2c(-c3ccccn3)nc(C)n(Cc3ccccc3)c2=O)cc1` meets or exceeds 8. f

Please indicate if the recorded pIC50 for `Cc1ccc([C@H](CC(=O)O)NC(=O)Nc2c(C)ccn(Cc3ccccc3F)c2=O)cc1` meets or exceeds 8. f

Please indicate if the recorded pIC50 for `Cc1cccc([C@H](CC(=O)O)NC(=O)Nc2c(O)ccn(Cc3ccccc3Cl)c2=O)c1` meets or exceeds 8. f

Please indicate if the recorded pIC50 for `O=C(O)C[C@H](NC(=O)Nc1c(O)ccn(Cc2ccccc2Cl)c1=O)c1cccc(F)c1` meets or exceeds 8. f
